- System: Bacillus spizizenii
- procedure text: Antibacterial activity against Bacillus subtilis ATCC 6633 after 18 hrs by CLSI disc diffusion method
- Format: functional
- experimental context: ATCC 6633, 18 h
measured endpoint: log10(MIC) (log10 of the value in µM)

| molecular string | value |
| --- | --- |
| Fc1ccc(-n2nnnc2NCc2ccco2)cc1Cl | 0.48 |
| O=[N+]([O-])c1cc(-n2nnnc2Nc2nc[nH]n2)ccc1Cl | 1.72 |
| Cc1ccc(-n2nnnc2NCc2ccco2)cc1Cl | 0.85 |
| O=C(O)n1nnnc1NCCc1c[nH]c2ccccc12 | 1.18 |
| Fc1ccc(-n2nnnc2NCCc2c[nH]c3ccccc23)cc1 | 1.08 |
| FC(F)(F)c1ccc(-n2nnnc2Nc2nccs2)cc1 | 1.41 |
| O=[N+]([O-])c1ccc(-n2nnnc2Nn2cnnc2)cc1 | 1.46 |
| Brc1ccc(-n2nnnc2Nn2cnnc2)cc1 | 1.41 |
| Clc1ccc(-n2nnnc2Nc2nccs2)cc1Cl | 0.78 |
| Fc1ccc(-n2nnnc2Nn2cnnc2)cc1 | 1.81 |
| O=C(O)n1nnnc1Nn1cnnc1 | 0.70 |
| Fc1ccc(-n2nnnc2Nn2cnnc2)cc1Cl | 1.76 |
| Fc1ccc(-n2nnnc2Nc2nccs2)cc1Cl | 1.15 |
| CCn1nnnc1NCCc1c[nH]c2ccccc12 | 3.00 |

----------
- Tested on: Pseudomonas aeruginosa
- procedure text: Antibacterial activity against Pseudomonas aeruginosa ATCC 27853 after 18 hrs by CLSI disc diffusion method
- Type: functional
- experimental context: ATCC 27853, 18 h
measured endpoint: log10(MIC) (log10 of the value in µM)

| molecular string | measured endpoint | value |
| --- | --- | --- |
| Brc1ccc(-n2nnnc2Nn2cnnc2)cc1 | log10(MIC) | 2.92 |
| CCn1nnnc1NCCc1c[nH]c2ccccc12 | log10(MIC) | 3.00 |
| O=C(O)n1nnnc1Nn1cnnc1 | log10(MIC) | 3.11 |
| O=[N+]([O-])c1cc(-n2nnnc2Nc2nc[nH]n2)ccc1Cl | log10(MIC) | 2.92 |
| O=C(O)n1nnnc1NCCc1c[nH]c2ccccc12 | log10(MIC) | 2.67 |
| Fc1ccc(-n2nnnc2Nn2cnnc2)cc1 | log10(MIC) | 3.02 |
| O=[N+]([O-])c1ccc(-n2nnnc2Nn2cnnc2)cc1 | log10(MIC) | 2.97 |
| Fc1ccc(-n2nnnc2NCCc2c[nH]c3ccccc23)cc1 | log10(MIC) | 2.60 |
| FC(F)(F)c1ccc(-n2nnnc2Nc2nccs2)cc1 | log10(MIC) | 2.61 |
| Clc1ccc(-n2nnnc2Nc2nccs2)cc1Cl | log10(MIC) | 2.91 |
| Cc1ccc(-n2nnnc2NCc2ccco2)cc1Cl | log10(MIC) | 1.15 |
| Fc1ccc(-n2nnnc2NCc2ccco2)cc1Cl | log10(MIC) | 0.85 |

----------
- System: Staphylococcus aureus
- procedure text: Antibacterial activity against Staphylococcus aureus NCTC 4163 after 18 hrs by CLSI disc diffusion method
- Format: functional
- experimental context: NCTC 4163, 18 h
The entries below are paired with their reported MIC.

| molecular string | operator | MIC / µM |
| --- | --- | --- |
| O=[N+]([O-])c1cc(-n2nnnc2Nc2nc[nH]n2)ccc1Cl | = | 208 |
| Fc1ccc(-n2nnnc2Nn2cnnc2)cc1 | = | 65 |
| Fc1ccc(-n2nnnc2NCCc2c[nH]c3ccccc23)cc1 | = | 50 |
| CCn1nnnc1NCCc1c[nH]c2ccccc12 | > | 999 |
| Fc1ccc(-n2nnnc2Nn2cnnc2)cc1Cl | = | 14 |
| Cc1ccc(-n2nnnc2NCc2ccco2)cc1Cl | = | 14 |
| O=C(O)n1nnnc1Nn1cnnc1 | = | 20 |
| Clc1ccc(-n2nnnc2Nc2nccs2)cc1Cl | = | 103 |
| Fc1ccc(-n2nnnc2Nc2nccs2)cc1Cl | = | 108 |
| Fc1ccc(-n2nnnc2NCc2ccco2)cc1Cl | = | 7 |
| O=C(O)n1nnnc1NCCc1c[nH]c2ccccc12 | = | 59 |
| FC(F)(F)c1ccc(-n2nnnc2Nc2nccs2)cc1 | = | 51 |
| Brc1ccc(-n2nnnc2Nn2cnnc2)cc1 | = | 52 |
| O=[N+]([O-])c1ccc(-n2nnnc2Nn2cnnc2)cc1 | = | 7 |
